These data points were gathered from paper PMC5540273.

Test system: TBK1
Conditions: concentration: 1 μM,replicates: in singlicate; n = 1;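 also: KINOMEscan kinase panel screen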
Recorded %Inh for the following compounds

{"COMPOUND": "CN1CCN(CCCNc2nccc(-c3c(-c4ccc(F)cc4)nn4cc(C(N)=O)ccc34)n2)CC1", "%Inh / %": 0}
{"COMPOUND": "Cc1nnc(-c2ccc3occ(-c4ccc(S(C)=O)cc4)c3n2)o1 (stereo not shown)", "%Inh / %": 30}
{"COMPOUND": "O=C(Nc1ccc(Oc2ccc3nc(NC(=O)C4CC4)cn3n2)c(F)c1)c1cccn(-c2ccccc2)c1=O", "%Inh / %": 54}
{"COMPOUND": "Cc1n[nH]c2cc(Nc3ccnc(Nc4cccc(CN5CCOCC5)c4)n3)ccc12", "%Inh / %": 63}

###

Test system: PIM3
Details: concentration: 1 μM,replicates: in singlicate; n = 1
Recorded %Inh for the following compounds
REPORTED_ENDPOINT: %Inh

{"COMPOUND": "Cn1ccc2ncnc(Oc3ccc(NC(=O)Nc4cc(C(C)(C)C)on4)c(Cl)c3)c21", "REPORTED_VALUE": "11%"}
{"COMPOUND": "O=C(Nc1cccc(Oc2ccc3nccn3n2)c1)Nc1cccc(C(F)(F)F)c1", "REPORTED_VALUE": "0%"}
{"COMPOUND": "CCNCC(Cc1ccccc1)NC(=O)c1cc(Br)c(-c2ccnc3[nH]ccc23)s1.Cl.Cl (stereo not drawn)", "REPORTED_VALUE": "5%"}
{"COMPOUND": "Cc1cccc2c(-c3ccncc3)c(-c3ccc(F)cc3)nn12.Cl", "REPORTED_VALUE": "0%"}
{"COMPOUND": "CCCC(=O)Nc1n[nH]c2ncccc12", "REPORTED_VALUE": "0%"}
{"COMPOUND": "Cn1ccc2ncnc(Oc3ccc(NC(=O)Nc4cccc(C(F)(F)F)c4)c(F)c3)c21", "REPORTED_VALUE": "8%"}
{"COMPOUND": "COc1cccc(CNC(=O)NC2CCN(c3ccnc(Nc4cc(OC)c(OC)c(OC)c4)n3)C2)c1 (stereo not drawn)", "REPORTED_VALUE": "0%"}
{"COMPOUND": "Cl.c1ccc(Oc2ccc(Nc3ccnc4cc(-c5ccc(CN6CCNCC6)o5)ccc34)cc2)nc1", "REPORTED_VALUE": "2%"}
{"COMPOUND": "O=C(Nc1cccc(C(F)(F)F)c1)c1cccc(Oc2ccc3nccn3n2)c1", "REPORTED_VALUE": "0%"}
{"COMPOUND": "Cc1ccc(C(=O)Nc2ccc(Oc3ccc4nc(NC(=O)C5CC5)cn4c3)c(F)c2)c(=O)n1-c1ccccc1", "REPORTED_VALUE": "0%"}
{"COMPOUND": "Cc1cccc(-c2nc(Nc3ccncc3)c3sccc3n2)n1", "REPORTED_VALUE": "13%"}
{"COMPOUND": "COc1cc(Nc2nccc(N3CCC(NC(=O)c4cccc(C#N)c4)C3)n2)cc(OC)c1OC (stereo not drawn)", "REPORTED_VALUE": "0%"}
{"COMPOUND": "OCCn1cc(-c2cnc3nnn(Cc4ccc5ncccc5c4)c3n2)cn1", "REPORTED_VALUE": "10%"}
{"COMPOUND": "CS(=O)(=O)Nc1ccc(-c2ccnc3[nH]ccc23)cc1", "REPORTED_VALUE": "12%"}
{"COMPOUND": "O=C1NCCc2[nH]c(-c3ccncc3)cc21", "REPORTED_VALUE": "37%"}
{"COMPOUND": "C[C@@H]1CNc2c(sc3ccc4nc(-c5ccc(O)cc5)ccc4c23)C(=O)N1", "REPORTED_VALUE": "72%"}
{"COMPOUND": "FC(F)(F)c1cc(Br)cc(Nc2nccc(-c3cnn4ncccc34)n2)c1", "REPORTED_VALUE": "23%"}
{"COMPOUND": "CC(=O)Nc1ccc(-c2cc3ncnc(SCC(=O)O)c3s2)cc1", "REPORTED_VALUE": "22%"}

###

System: WEE1
Details: concentration: 1 μM,replicates: in singlicate; n = 1
Response key: T means %Inh >= 8%; F means %Inh < 8%.

{"COMPOUND": "CC(C)c1nc(-c2cccc(NS(=O)(=O)c3ccccc3)c2)c(-c2ccnc(Nc3ccc4c(c3)CN(C)CC4)n2)s1 [GSK1649598]", "DISCRETE_LABEL": "F"}
{"COMPOUND": "COc1cccc(C2=C(Nc3cccc(Cl)c3)C(=O)NC2=O)c1 [SB-341556]", "DISCRETE_LABEL": "F"}
{"COMPOUND": "Cn1ccc2ncnc(Oc3ccc(NC(=O)Nc4cccc(C(F)(F)F)c4)c(F)c3)c21", "DISCRETE_LABEL": "T"}
{"COMPOUND": "O=C(Nc1cccc(Oc2ccc3nccn3n2)c1)Nc1cccc(C(F)(F)F)c1", "DISCRETE_LABEL": "F"}
{"COMPOUND": "CCN1CCN(CCCC(=O)Nc2n[nH]c3nc(-c4ccc(O)cc4)c(Br)cc23)CC1 [SB-731579]", "DISCRETE_LABEL": "F"}
{"COMPOUND": "C[C@@H](Oc1cc(-n2cnc3ccc(-c4ccncc4)cc32)sc1C(N)=O)c1ccccc1Cl [GSK483724]", "DISCRETE_LABEL": "T"}
{"COMPOUND": "COc1ccc(Nc2nccc(N3CCC(NC(=O)c4cccc(C#N)c4)C3)n2)cc1 (centres unmarked) [GSK1379730]", "DISCRETE_LABEL": "F"}
{"COMPOUND": "Cl.Nc1n[nH]c2cc(-c3ccccn3)ccc12 [GSK2189892]", "DISCRETE_LABEL": "F"}
{"COMPOUND": "COc1cccc(OC)c1C(=O)Nc1cccc(-c2nn3ccccc3c2-c2ccnc(Nc3cccc(F)c3)n2)c1 [GSK361065]", "DISCRETE_LABEL": "T"}
{"COMPOUND": "CC(=O)c1c(-c2ccncc2)[nH]c(-c2ccncc2)c1C [GW493036]", "DISCRETE_LABEL": "T"}
{"COMPOUND": "COc1cc2ncn(-c3cc(OCC4CCCCC4)c(C(N)=O)s3)c2cc1OC [GSK204559]", "DISCRETE_LABEL": "F"}
{"COMPOUND": "FC(F)(F)c1cc(Br)cc(Nc2nccc(-c3cnn4ncccc34)n2)c1 [GW810578]", "DISCRETE_LABEL": "F"}
{"COMPOUND": "COc1cc2c(Nc3ccc(NC(=O)c4ccccc4)cc3)ncnc2cc1OCCCN1CCOCC1 [GSK301329]", "DISCRETE_LABEL": "T"}
{"COMPOUND": "Cc1nnc(-c2ccc3occ(-c4ccc(S(C)=O)cc4)c3n2)o1 (centres unmarked)", "DISCRETE_LABEL": "F"}

###

Recorded %Inh for the following molecules
Tested on: RIOK2
Conditions: concentration: 1 μM,replicates: in singlicate; n = 1

{"QUERY_SMILES": "CN(c1cccc(CNc2nc(Nc3ccc4c(c3)CC(=O)N4)ncc2C(F)(F)F)c1)S(C)(=O)=O", "%Inh [%]": 19}
{"QUERY_SMILES": "Cn1ccc2ncnc(Oc3ccc(NC(=O)Nc4cc(C(C)(C)C)on4)c(Cl)c3)c21", "%Inh [%]": 29}
{"QUERY_SMILES": "Cn1ccc2ncnc(Oc3ccc(NC(=O)Nc4cnn(C(C)(C)C)c4)c(Cl)c3)c21", "%Inh [%]": 29}
{"QUERY_SMILES": "O=C(Nc1n[nH]c2cc(-c3ccco3)ccc12)C1CC1", "%Inh [%]": 10}
{"QUERY_SMILES": "C[C@@H](Oc1cc(-n2cnc3cc(-c4cnn(C)c4)ccc32)sc1C(N)=O)c1ccccc1Cl", "%Inh [%]": 25}
{"QUERY_SMILES": "FC(F)(F)c1cc(Br)cc(Nc2nccc(-c3cnn4ncccc34)n2)c1", "%Inh [%]": 82}
{"QUERY_SMILES": "Cc1ccc2c(-c3ccnc(Nc4ccc(C(F)(F)F)cc4)n3)cnn2n1", "%Inh [%]": 84}
{"QUERY_SMILES": "COc1cccc(OC)c1C(=O)Nc1cccc(-c2nn3ccccc3c2-c2ccnc(Nc3cccc(F)c3)n2)c1", "%Inh [%]": 2}
{"QUERY_SMILES": "C[C@@H]1CNc2c(sc3ccc4nc(-c5ccc(O)cc5)ccc4c23)C(=O)N1", "%Inh [%]": 18}

###

System: TAOK2
Conditions: concentration: 1 μM,replicates: in singlicate; n = 1
Recorded %Inh for the following compounds

{"QUERY_SMILES": "CN(c1cccc(CNc2nc(Nc3ccc4c(c3)CC(=O)N4)ncc2C(F)(F)F)c1)S(C)(=O)=O", "%Inh / %": 16}
{"QUERY_SMILES": "O=C(NOCC1CC1)c1cc(Br)c(F)c(F)c1Nc1ccc(I)cc1Cl", "%Inh / %": 27}
{"QUERY_SMILES": "Cc1cccc2c(-c3ccncc3)c(-c3ccc(F)cc3)nn12.Cl", "%Inh / %": 0}
{"QUERY_SMILES": "O=C1NCCc2[nH]c(-c3ccncc3)cc21", "%Inh / %": 16}
{"QUERY_SMILES": "CSc1nccc(-c2c(-c3ccc(F)cc3)ncn2CCCN2CCOCC2)n1.Cl", "%Inh / %": 45}
